Sourced from ChEMBL document CHEMBL1961873

- Test system: RAC-gamma serine/threonine-protein kinase (Homo sapiens) (UniProt Q9Y243)
- Sequence (Q9Y243 whole entry): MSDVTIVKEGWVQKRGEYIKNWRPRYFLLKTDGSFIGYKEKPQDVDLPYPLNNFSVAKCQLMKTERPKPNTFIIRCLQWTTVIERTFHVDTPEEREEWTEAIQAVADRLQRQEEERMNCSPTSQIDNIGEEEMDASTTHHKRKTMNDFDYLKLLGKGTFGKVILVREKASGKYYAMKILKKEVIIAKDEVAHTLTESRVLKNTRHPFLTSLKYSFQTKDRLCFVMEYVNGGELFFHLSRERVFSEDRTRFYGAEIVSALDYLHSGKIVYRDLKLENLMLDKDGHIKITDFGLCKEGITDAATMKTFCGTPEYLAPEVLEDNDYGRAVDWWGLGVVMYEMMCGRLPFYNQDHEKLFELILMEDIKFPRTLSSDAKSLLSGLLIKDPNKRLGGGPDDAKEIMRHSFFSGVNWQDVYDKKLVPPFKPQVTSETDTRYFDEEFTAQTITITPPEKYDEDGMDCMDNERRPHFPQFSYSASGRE
- Recorded conditions: at 0.1 µM
- Description: GSK_PKIS: AKT3 mean inhibition at 0.1 uM [Nanosyn]
Measure name: inhibition (%)

structure_notation=Fc1ccc(Nc2nccc(-c3c(-c4ccc(C(F)(F)F)cc4)nn4ncccc34)n2)cc1F measure_name=inhibition value_units=% reported=1.72
structure_notation=N#Cc1cccc(Nc2ncc(-c3ccccc3)o2)c1 measure_name=inhibition value_units=% reported=0.9
structure_notation=c1cnn2ncc(-c3ccnc(NCCCN4CCOCC4)n3)c2c1 measure_name=inhibition value_units=% reported=1.38
structure_notation=Cc1cc(O)cc(C)c1/C=C/c1cncc(C(N)=O)c1 measure_name=inhibition value_units=% reported=1.06
structure_notation=COc1c(C(N)=O)cc(-c2ccc(Cl)cc2)cc1-c1ccc(S(N)(=O)=O)cc1 measure_name=inhibition value_units=% reported=1.8

----------
Measured inhibition, listed per entry for reference.
- Test system: Casein kinase I isoform alpha (Homo sapiens);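 also: each value is a mean percent inhibition of the kinase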
- Recorded conditions: at 1 µM
Measure name: inhibition (%)

structure_notation=O=C1Nc2ccccc2/C1=C1\CCc2cc(O)ccc21 test_system="Casein kinase I isoform alpha (Homo sapiens)" measure_name=inhibition reported=9.64
structure_notation=O=C(Nc1n[nH]c2nnc(-c3cccnc3)cc12)C1CC1 test_system="Casein kinase I isoform alpha (Homo sapiens)" measure_name=inhibition reported=-2.19
structure_notation=CN(C)CCNC(=O)Nc1ccc(N(C)c2ccnc(Nc3ccc(CS(C)(=O)=O)cc3)n2)cc1 test_system="Casein kinase I isoform alpha (Homo sapiens)" measure_name=inhibition reported=5.94
structure_notation=NS(=O)(=O)c1ccc(N/N=C2\C(=O)Nc3ccc(C(=O)NCc4ccncc4)cc32)cc1 test_system="Casein kinase I isoform alpha (Homo sapiens)" measure_name=inhibition reported=2.77
structure_notation=NS(=O)(=O)c1cccc(N/C=C2\C(=O)Nc3ccccc32)c1 test_system="Casein kinase I isoform alpha (Homo sapiens)" measure_name=inhibition reported=21.6
structure_notation=CN1CCC(n2cnc(-c3ccc(F)cc3)c2-c2ccnc(NCCO)n2)CC1 test_system="Casein kinase I isoform alpha (Homo sapiens)" measure_name=inhibition reported=73.4
structure_notation=O=C(O[C@H]1CN[C@H](C#Cc2cc3ncnc(Nc4ccc5c(ccn5Cc5cc(F)ccc5F)c4)c3s2)C1)N1CCOCC1 test_system="Casein kinase I isoform alpha (Homo sapiens)" measure_name=inhibition reported=5.4
structure_notation=CNC(=O)c1cncc(/C=C/c2ccccc2C)c1 test_system="Casein kinase I isoform alpha (Homo sapiens)" measure_name=inhibition reported=5.05
structure_notation=O=C(O[C@H]1CN[C@H](C#Cc2cc3ncnc(Nc4ccc5c(cnn5Cc5ccccc5)c4)c3s2)C1)N1CCOCC1 test_system="Casein kinase I isoform alpha (Homo sapiens)" measure_name=inhibition reported=0.76
structure_notation=Cc1cc(O)cc(C)c1/C=C/c1cncc(C(N)=O)c1 test_system="Casein kinase I isoform alpha (Homo sapiens)" measure_name=inhibition reported=2.52

----------
- Test system: Serine/threonine-protein kinase 26 (Homo sapiens);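 also: mean inhibition of MST4 kinase activity, reported from the GSK PKIS inhibitor-set screening panel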
- Recorded conditions: at 1 µM
In this section, each of the molecules is paired with its reported inhibition.
Measure name: inhibition (%)

structure_notation=CN1CCC(n2cnc(-c3ccc(F)cc3)c2-c2ccnc(NCCO)n2)CC1 test_system="Serine/threonine-protein kinase 26 (Homo sapiens)" reported=1.34
structure_notation=Fc1ccc(Nc2nccc(-c3c(-c4ccc(C(F)(F)F)cc4)nn4ncccc34)n2)cc1F test_system="Serine/threonine-protein kinase 26 (Homo sapiens)" reported=-0.83
structure_notation=COc1cc(Nc2ncc(-c3ccccc3)o2)cc(OC)c1 test_system="Serine/threonine-protein kinase 26 (Homo sapiens)" reported=-4.28
structure_notation=COc1ccc(-c2nn3ncccc3c2-c2ccnc(Nc3ccc(F)c(F)c3)n2)cc1 test_system="Serine/threonine-protein kinase 26 (Homo sapiens)" reported=0.76
structure_notation=CS(=O)(=O)CCNCc1ccc(-c2ccc3ncnc(Nc4ccc(OCc5cccc(C(F)(F)F)c5)cc4)c3c2)o1 test_system="Serine/threonine-protein kinase 26 (Homo sapiens)" reported=0.42
structure_notation=CS(=O)(=O)CCNCc1ccc(-c2ccc3ncnc(Nc4ccc(OCc5ccccc5)cc4)c3c2)o1 test_system="Serine/threonine-protein kinase 26 (Homo sapiens)" reported=1.34
structure_notation=COc1ccc(Nc2ncc(-c3ccccc3)o2)cc1OC test_system="Serine/threonine-protein kinase 26 (Homo sapiens)" reported=-5.3
structure_notation=COc1ccc2ncn(-c3cc(O[C@H](C)c4ccccc4C(F)(F)F)c(C(N)=O)s3)c2c1 test_system="Serine/threonine-protein kinase 26 (Homo sapiens)" reported=13.1
structure_notation=NS(=O)(=O)c1cccc(N/C=C2\C(=O)Nc3ccccc32)c1 test_system="Serine/threonine-protein kinase 26 (Homo sapiens)" reported=-1.86
structure_notation=COc1ccccc1-c1cc(/C=C2\C(=O)Nc3ncc(Br)cc32)cc(Br)c1O test_system="Serine/threonine-protein kinase 26 (Homo sapiens)" reported=13.5
structure_notation=COc1cccc(Nc2nccc(-c3cnn4ncccc34)n2)c1 test_system="Serine/threonine-protein kinase 26 (Homo sapiens)" reported=3.21
